Give PBMC pSTAT3 IC50 for every item shown.
Target: T1, interleukin-23 receptor (IL-23R), Q5VWK5
T1 chain: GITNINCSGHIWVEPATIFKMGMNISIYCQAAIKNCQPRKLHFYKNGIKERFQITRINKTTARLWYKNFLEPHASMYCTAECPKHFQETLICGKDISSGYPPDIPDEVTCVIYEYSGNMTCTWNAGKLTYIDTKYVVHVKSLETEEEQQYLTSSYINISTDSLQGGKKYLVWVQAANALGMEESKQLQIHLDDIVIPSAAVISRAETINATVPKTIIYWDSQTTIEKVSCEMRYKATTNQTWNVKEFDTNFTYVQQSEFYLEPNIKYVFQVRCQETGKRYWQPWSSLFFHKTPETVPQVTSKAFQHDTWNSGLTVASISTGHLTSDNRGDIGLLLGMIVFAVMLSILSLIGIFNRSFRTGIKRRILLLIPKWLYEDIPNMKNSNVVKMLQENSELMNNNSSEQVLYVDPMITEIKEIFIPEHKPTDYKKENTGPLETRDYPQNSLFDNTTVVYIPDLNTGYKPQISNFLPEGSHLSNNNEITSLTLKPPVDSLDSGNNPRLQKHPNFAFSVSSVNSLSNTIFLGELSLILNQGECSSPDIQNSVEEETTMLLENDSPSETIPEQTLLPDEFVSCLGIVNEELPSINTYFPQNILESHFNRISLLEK
Assay: cell-based or functional assay
Starred links: 1 amine or outer side, 2 acyl side, 3 side chain; linkers in the order of their positions; H or OH if unused. Positions of bridges follow the written chain, without caps; N, C: chain ends. Non-standard residues stand in square brackets, D forms with d. No end group written: not given here. AEF(G) = 2-amino-3-(4-(2-guanidinoethoxy)phenyl)propanoic acid, N=C(N)NCCOc1ccc(C[C@H](N[*:1])C(=O)[*:2])cc1; 2Nal(6-OH) = N[C@@H](Cc1ccc2cc(O)ccc2c1)C(=O)O; Trp(7-Me) = Cc1cccc2c(C[C@H](N)C(=O)O)c[nH]c12; AEF = NCCOc1ccc(C[C@H](N)C(=O)O)cc1; 3Pal = N[C@@H](Cc1cccnc1)C(=O)O; Lipidated = not defined here; Pen = CC(C)(S)[C@H](N)C(=O)O; lipid = not defined here; Thp = NC1(C(=O)O)CCOCC1; Sar = CNCC(=O)O

Study these solved cases before continuing.
BINDER	PBMC pSTAT3 IC50
[Pen]NT[Trp(7-Me)]K(Ac)[Pen][2‑amino‑3‑(4-(2-aminoethoxy)phenyl)propanoic acid][2‑amino‑3‑(6-hydroxynaphthalen-2-yl)propanoic acid][Thp]K(Ac)N[3Pal][Sar]K(lipid) (disulfide 1-6 (inferred); ends not checked; also: K14: lipidated lysine, lipid not given here) [SEQ ID NO: 165]	> 1 nM
[Pen]NT[Trp(7-Me)]K(Ac)[Pen][2‑amino‑3‑(4-(2-aminoethoxy)phenyl)propanoic acid][2‑amino‑3‑(6-hydroxynaphthalen-2-yl)propanoic acid][Thp]K(Ac)N[3Pal][Sar]K(lipid) (disulfide 1-6 (inferred); ends not checked; also: K14 lipidated lysine, lipid not given here) [SEQ ID NO: 182]	< 1 nM

Could you tell me PBMC pSTAT3 IC50 for each of these binders? They are listed below.
1. R[Pen]NT[Trp(7-Me)]K(Ac)[Pen][AEF(G)][2Nal(6-OH)][Thp]EN[3Pal][Sar] (ends and bridges not checked) [SEQ ID NO: 32]
2. [Pen]NT[Trp(7-Me)]K(Ac)[Pen][5‑(4-(2-amino-2-carboxyethyl)phenoxy)‑N,N,N‑trimethylpentan‑1‑aminium][2‑amino‑3‑(6-hydroxynaphthalen-2-yl)propanoic acid][Thp]K(Lipidated)N[3Pal][Sar] (disulfide 1-6 (inferred); ends not checked; also: K10: lipidated lysine, lipid not given here) [SEQ ID NO: 198]
3. [(R)‑2‑(2-(3-((5-carboxy-5-hydrazineylpentyl)amino)-3-oxopropoxy)ethoxy)‑N,N,N‑trimethylethan‑1‑aminium][Pen]NT[Trp(7-Me)]K(Ac)[Pen][2‑amino‑3‑(4-(2-aminoethoxy)phenyl)propanoic acid][2‑amino‑3‑(6-hydroxynaphthalen-2-yl)propanoic acid][Thp]EN[3Pal][Sar] (disulfide 2-7 (inferred); ends not checked) [SEQ ID NO: 145]

< 0.01 nM
< 1 nM
< 0.1 nM

Look up PBMC pSTAT3 IC50 for the entries below, preserving their order.
1. R[Pen]NT[Trp(7-Me)]K(Ac)[Pen][AEF][2Nal(6-OH)][Thp]EN[3Pal][Sar] (disulfide 2-7 (inferred); ends not checked) [SEQ ID NO: 94]
2. K[Pen]NT[Trp(7-Me)]K(Ac)[Pen][2‑amino‑3‑(4-(2-aminoethoxy)phenyl)propanoic acid][2‑amino‑3‑(6-hydroxynaphthalen-2-yl)propanoic acid][Thp]EN[3Pal][Sar] (disulfide 2-7 (inferred); not fully specified (residue 1); ends not checked; also: K1: lipidated lysine, lipid not given here) [SEQ ID NO: 91]

< 1 nM
< 0.1 nM
